target-of-assay: Glutamate NMDA receptor
method-notes: Binding affinity by measuring displacement of [3H]CPP from NMDA receptor in rat cortical slice preparation
Provide the reported IC50 of each item.

-- ask Annotate the molecule Cc1onc(OCC(=O)O)c1C(N)C(=O)O (stereo unspecified) with its measured IC50.
-- reply > 100 µM

-- ask Annotate the molecule NC(Cc1c(OCC(=O)O)noc1C(F)(F)F)C(=O)O (stereo unspecified) with its measured IC50.
-- reply > 100 µM

-- ask Annotate the molecule Cc1o[nH]c(=O)c1C(N)C(=O)O (stereo unspecified) with its measured IC50.
-- reply 4.5 µM

-- ask Annotate the molecule O=C(O)COc1noc2c1CC(C(=O)O)NC2 (stereo unspecified) with its measured IC50.
-- reply 16 µM

-- ask Annotate the molecule Cc1onc(OCC(=O)O)c1CC(N)C(=O)O (stereo unspecified) with its measured IC50.
-- reply > 100 µM

-- ask Annotate the molecule C=C(C)[C@H]1CN[C@H](C(=O)O)[C@H]1CC(=O)O with its measured IC50.
-- reply > 100 µM

---

target-of-assay: Glutamate receptor ionotropic, AMPA (Rattus norvegicus, UniProt P19490+P19491+P19492+P19493)
method-notes: Binding affinity by measuring displacement of [3H]AMPA from Ionotropic glutamate receptor AMPA in rat cortical slice preparation
quantity-measured: IC50

-- ask Annotate the compound Cc1onc(OCC(=O)O)c1C(N)C(=O)O (stereo not given) with its measured IC50.
-- reply > 100 µM

-- ask Annotate the compound Cc1onc(OCC(=O)O)c1CC(N)C(=O)O (stereo not given) with its measured IC50.
-- reply 90 µM

-- ask Annotate the compound Cc1o[nH]c(=O)c1C(N)C(=O)O (stereo not given) with its measured IC50.
-- reply > 100 µM

-- ask Annotate the compound O=C(O)COc1noc2c1CC(C(=O)O)NC2 (stereo not given) with its measured IC50.
-- reply > 100 µM

-- ask Annotate the compound NC(Cc1c(OCC(=O)O)noc1C(F)(F)F)C(=O)O (stereo not given) with its measured IC50.
-- reply > 100 µM
